# Test system: SD rats
# protocol text: animal or person
# Assay type: in vivo
# measurement setup: SD rats, tail vein injection

| compound | Quality of recovery |
| --- | --- |
| COC(=O)C(C)OC(=O)CC[C@@H]1N=C(c2ccccn2)c2cc(Br)c(Br)cc2-n2c(C)cnc21 (stereo partly shown) | ++ (“++” means 1-3 min) |
| CCOC(=O)COC(=O)CC[C@@H]1N=C(c2ccccn2)c2cc(Br)c(Br)cc2-n2c(C)cnc21 | ++ (“++” means 1-3 min) |
| Cc1cnc2n1-c1cc(Br)c(Br)cc1C(c1ccccn1)=N[C@H]2CCC(=O)OCOC(=O)OC(C(C)C)C(C)C | ++ (“++” means 1-3 min) |
| COC(=O)COC(=O)CC[C@@H]1N=C(c2ccccn2)c2cc(Br)ccc2-n2c(C)cnc21 | ++ (“++” means 1-3 min) |

* * *

Give measured 2ED50 duration for each item. Keep answers brief.
# Tested on: SD rats
# protocol text: animal or person
# Format: in vivo
# measurement setup: SD rats, single tail vein injection at 2×ED50; time from disappearance to recovery of righting reflex
Answers are plain numbers, in min.

Before answering, review these 4 worked examples.
| compound | 2ED50 duration [min] |
| --- | --- |
| CCC(CC)OC(=O)OCOC(=O)CC[C@@H]1N=C(c2ccccn2)c2cc(Br)c(Br)cc2-n2c(C)cnc21 | 5.24 |
| CCOC(=O)OCOC(=O)CC[C@@H]1N=C(c2ccccn2)c2cc(Br)c(Br)cc2-n2c(C)cnc21 | 4.12 |
| COC(=O)C1(OC(=O)CC[C@@H]2N=C(c3ccccn3)c3cc(Br)ccc3-n3c(C)cnc32)CC1 | 5.09 |
| COC(=O)C(OC(=O)CC[C@@H]1N=C(c2ccccn2)c2cc(Cl)cc(OC(F)(F)F)c2-n2c(C)cnc21)C1CCCCCCCCC1 (stereo partly shown) | 2.15 |

I have 3 compounds here; please give me 2ED50 duration for each one.
1. COC(=O)COC(=O)CC[C@@H]1N=C(c2ccccn2)c2cc(Br)c(Br)cc2-n2c(C)cnc21
2. COC(=O)CC[C@@H]1N=C(c2ccccn2)c2cc(Br)ccc2-n2c(C)cnc21 [Remimazolam, reference compound]
3. COC(=O)COC(=O)CC[C@@H]1N=C(c2ccccn2)c2cc(Br)ccc2-n2c(C)cnc21

3.47
7.58
1.05

* * *

# Tested on: KM mice
# protocol text: animal or person
# Format: in vivo
# measurement setup: KM mice, single tail vein injection at 2×ED50; time from disappearance to recovery of righting reflex
readout name: 2ED50 duration (min)
One number for each entry, in min.

| compound | 2ED50 duration [min] |
| --- | --- |
| COC(=O)OC(C)OC(=O)CC[C@@H]1N=C(c2ccccn2)c2cc(Br)c(Br)cc2-n2c(C)cnc21 (stereo partly shown) | 1.43 |
| CCOC(=O)OCOC(=O)CC[C@@H]1N=C(c2ccccn2)c2cc(Br)ccc2-n2c(C)cnc21 | 5.25 |
| COC(=O)C1(OC(=O)CC[C@@H]2N=C(c3ccccn3)c3cc(Cl)c(C(F)(F)F)cc3-n3c(C)cnc32)CC1 [Example 40] | 4.26 |
| Cc1cnc2n1-c1cc(Br)c(Br)cc1C(c1ccccn1)=N[C@H]2CCC(=O)OCOC(=O)OC(C(C)C)C(C)C | 6.42 |
| CCOC(=O)C1(OC(=O)CC[C@@H]2N=C(c3ccccn3)c3cc(Br)ccc3-n3c(C)cnc32)CC1 | 2.77 |

Batch request: 2ED50 duration for each of the following compounds.
1. CCOC(CCC(C)(C)OC(=O)CC[C@@H]1N=C(c2ccccn2)c2cc(Br)cc(Cl)c2-n2c(C)cnc21)C(=O)OC (stereo partly shown)
2. CCOC(=O)OCOC(=O)CC[C@@H]1N=C(c2ccccn2)c2cc(Br)c(Br)cc2-n2c(C)cnc21

3.4
5.48
